biological target: UniProt P25090; experiment: FLIPR Ca+2 response in HEK-Gα16 cells stably expressing the human FPR2 receptor; conditions: Table 4
Sequence (P25090 whole entry): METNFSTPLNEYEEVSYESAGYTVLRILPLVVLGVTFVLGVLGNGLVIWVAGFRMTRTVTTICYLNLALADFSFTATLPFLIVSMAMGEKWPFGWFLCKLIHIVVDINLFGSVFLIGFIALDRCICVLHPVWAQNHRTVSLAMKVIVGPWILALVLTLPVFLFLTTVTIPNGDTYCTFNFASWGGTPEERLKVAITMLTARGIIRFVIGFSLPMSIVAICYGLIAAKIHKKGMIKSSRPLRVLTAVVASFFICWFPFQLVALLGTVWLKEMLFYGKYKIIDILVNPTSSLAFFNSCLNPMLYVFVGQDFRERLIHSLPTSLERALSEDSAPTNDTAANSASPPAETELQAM
pEC50: −log10 of the molar value.
measurement_label: pEC50

Please review the entries below; each comes with its answer.
| compound | pEC50 |
| --- | --- |
| O=C(Nc1ccc(Br)cc1)[C@@H]1C2CCC([C@@H]1C(=O)O)C21CC1 (single isomer, unassigned) | > 9.00 |
| NC(=O)C1C(C(=O)Nc2ccc(Br)cc2)C2CCC1C21CC1 (single isomer, unassigned; (-)) | > 9.00 |

Now take the following compound into account.
Query (compound): `CSc1ccc(NC(=O)N[C@@H](CC(C)C)C(=O)NCC(=O)O)cc1` ; field requested: pEC50 8.52

meta.source: patent US10434112B2
